Molecular target: T1, GST-Shank 3 PDZ domain 1 (human (hypothetical, computer cloned)), Q9BYB0
T1 chain: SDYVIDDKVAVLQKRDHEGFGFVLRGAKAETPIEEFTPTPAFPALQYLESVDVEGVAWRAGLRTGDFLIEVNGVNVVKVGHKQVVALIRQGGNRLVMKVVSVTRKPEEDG
Test: G' assay; note: key of the grades not given here
Reported Classification values are given for each entry in this list.
MEASURED_PROPERTY: Classification (A450 class)

- BINDER: "TFAAGFNSTGLPHSTTRV (modifications not checked) [Neuroligin]"
  MEASURED_PROPERTY: "Classification"
  UNIT_SYMBOL: "A450 class"
  READOUT_VALUE: 3
- BINDER: "KENDYESISDLQQGRDITRL (modifications not checked) [PAG]"
  MEASURED_PROPERTY: "Classification"
  UNIT_SYMBOL: "A450 class"
  READOUT_VALUE: 2
- BINDER: "TREDIYVNYPTFSRRPKTRV (modifications not checked) [DNAM-1]"
  MEASURED_PROPERTY: "Classification"
  UNIT_SYMBOL: "A450 class"
  READOUT_VALUE: 2
- BINDER: "PIPAGGCTFSGIFPTLTSPL (modifications not checked) [KIA 1481]"
  MEASURED_PROPERTY: "Classification"
  UNIT_SYMBOL: "A450 class"
  READOUT_VALUE: 3
